ASSAY_TARGET: human melanocortin receptor subtype 1 (hMC1-R) (human) (UniProt Q01726)
Sequence (Q01726 whole entry): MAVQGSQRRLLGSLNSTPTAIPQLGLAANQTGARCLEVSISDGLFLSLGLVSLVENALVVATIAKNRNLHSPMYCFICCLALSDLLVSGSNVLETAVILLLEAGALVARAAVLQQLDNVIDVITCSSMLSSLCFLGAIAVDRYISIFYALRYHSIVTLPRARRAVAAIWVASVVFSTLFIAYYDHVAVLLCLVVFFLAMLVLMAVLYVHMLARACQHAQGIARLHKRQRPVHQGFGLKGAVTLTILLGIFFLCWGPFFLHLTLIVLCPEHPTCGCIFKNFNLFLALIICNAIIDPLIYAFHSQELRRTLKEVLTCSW
METHOD_DESCRIPTION: [125I]-NDP-α-MSH competition, membranes
pKi: −log10 of the molar value. Bridge positions count the residues as written; N and C are the ends. Square brackets hold non-standard residues; d marks the D form. Ends that are not written are not given here. Orn = NCCC[C@H](N)C(=O)O; Dab = NCC[C@H](N)C(=O)O; Dap = NC[C@H](N)C(=O)O
Threshold check on pKi: at or above 8 gives fulfilled, strictly below gives not fulfilled.

Some solved cases for reference:
D[dA]H[dF]RW[Dap]-NH2 (lactam 1-7; also: hydantoin ring from C(O) with Asp1-D-Ala2) [c[Hydantoin(C(O)-(Asp-D-Ala))-His-D-Phe-Arg-Trp-Dap]-NH2] | not fulfilled
D[dA]H[dF]RW[Orn]-NH2 (lactam 1-7; also: hydantoin ring from C(O) with Asp1-D-Ala2) [c[Hydantoin(C(O)-(Asp-D-Ala))-His-D-Phe-Arg-Trp-Orn]-NH2] | not fulfilled
E[dA]H[dF]RW[Dab]-NH2 (lactam 1-7; also: hydantoin ring from C(O) with Glu1-D-Ala2) [c[Hydantoin(C(O)-(Glu-D-Ala))-His-D-Phe-Arg-Trp-Dab]-NH2] | not fulfilled

Q. Decide: pKi of E[dA]H[dF]RWK-NH2 (lactam 1-7 (inferred); also: hydantoin ring from C(O) with Glu1-D-Ala2) [c[Hydantoin(C(O)-(Glu-D-Ala))-His-D-Phe-Arg-Trp-Lys]-NH2] >= 8?
A. not fulfilled

Q. Decide: pKi of E[dA]H[dF]RW[Orn]-NH2 (lactam 1-7 (inferred); also: hydantoin ring from C(O) with Glu1-D-Ala2) [c[Hydantoin(C(O)-(Glu-D-Ala))-His-D-Phe-Arg-Trp-Orn]-NH2] >= 8?
A. not fulfilled

Q. Decide: pKi of G[dR]C[dA]H[dF]RWC-NH2 (bridge N-2 via C(O) hydantoin; disulfide 3-9; not fully specified) [Hydantoin(C(O)-(Gly-D-Arg))-c(Cys-D-Ala-His-D-Phe-Arg-Trp-Cys)-NH2] >= 8?
A. fulfilled

Provenance of the data: patent US20120135923A1
